B1: Lysozyme C, P61626 (parent)
chain: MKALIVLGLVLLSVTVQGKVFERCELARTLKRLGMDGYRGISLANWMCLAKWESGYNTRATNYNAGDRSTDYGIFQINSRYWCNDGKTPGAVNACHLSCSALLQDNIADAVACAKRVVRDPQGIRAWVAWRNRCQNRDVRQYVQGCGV

# Variants of: B1
# conditions_used: Homo sapiens; pH 2.7; Thermal; DSC; glycine 0.05 M; reversible: yes; structure 1LZ1; whole UniProt chain shown
I would appreciate it if you labelled entries YES when unfolding enthalpy (calorimetric) is 70 kcal/mol or higher, otherwise NO.

record_sequence	class_assignment
MKALIVLGLVLLSVTVQGKVFERCELARTLKRLGMDGYRGISLANWMCLAKWESGYNTRATNYNAGDRSTDYGIFQINSRYWCNDGKTPGAVNACHLSCSALLQDNIADAVACAKRVVRDPQGIRAWAAWRNRCQNRDVRQYVQGCGV [V128A]	YES
MKALIVLGLVLLSVTVQGKVFERCELARTLKRLGMDGYRGISLANWMCLAKWESGYNTRATNYNAGDRSTDYGIFQINSRYWCNDGKTPGAVNACHLSCSALLQDNVADAVACAKRVVRDPQGIRAWVAWRNRCQNRDVRQYVQGCGV [I107V]	YES
MKALIVLGLVLLSVTVQGKAFERCELARTLKRLGMDGYRGISLANWMCLAKWESGYNTRATNYNAGDRSTDYGIFQINSRYWCNDGKTPGAVNACHLSCSALLQDNIADAVACAKRVVRDPQGIRAWVAWRNRCQNRDVRQYVQGCGV [V20A]	NO
MKALIVLGLVLLSVTVQGKVFERCELARTLKRLGMDGYRGISLANWMCLAKWESGYNTRATNYNAGDRSTDYGIFQINSRYWCNDGKTPGAVNACHLSCSALLQDNIADAVACAKRAVRDPQGIRAWVAWRNRCQNRDVRQYVQGCGV [V117A]	NO
MKALIVLGLVLLSVTVQGKVFERCELARTLKRLGMDGYRGISLANWMCLAKWESGYNTRATNYNAGDRSTDYGIFQINSRYWCNDGKTPGAVNACHLSCSALLQDNIADAVACAKRVVRDPQGIRAWVAWRNRCQNRDVRQYVQGCGA [V148A]	YES
MKALIVLGLVLLSVTVQGKVFERCELARTLKRLGMDGYRGISLANWMCLAKWESGYNTRATNYNAGDRSTDYGIFQINSRYWCNDGKTPGAANACHLSCSALLQDNIADAVACAKRVVRDPQGIRAWVAWRNRCQNRDVRQYVQGCGV [V92A]	YES
MKALIVLGLVLLSVTVQGKVFERCELARTLKRLGMDGYRGISLANWMCLAKWESGYNTRATNYNAGDRSTDYGIFQINSRYWCNDGKTPGAVNACHLSCSALLQDNIADAVACAKRVARDPQGIRAWVAWRNRCQNRDVRQYVQGCGV [V118A]	YES
MKALIVLGLVLLSVTVQGKVFERCELARTLKRLGMDGYRGISLANWMCLAKWESGYNTRATNYNAGDRSTDYGIFQINSRYWCNDGKTPGAVNACHLSCSALLQDNIADAVACAKRVVRDPQGIRAWVAWRNRCQNRDARQYVQGCGV [V139A]	NO
MKALIVLGLVLLSVTVQGKVFERCELARTLKRLGMDGYRGISLANWMCLAKWESGYNTRATNYNAGDRSTDYGIFQINSRYWCNDGKTPGAVNACHLSCSALLQDNIADAVACAKRVVRDPQGIRAWVAWRNRCQNRDVRQYAQGCGV [V143A]	YES
MKALIVLGLVLLSVTVQGKVFERCELARTLKRLGMDGYRGVSLANWMCLAKWESGYNTRATNYNAGDRSTDYGIFQINSRYWCNDGKTPGAVNACHLSCSALLQDNIADAVACAKRVVRDPQGIRAWVAWRNRCQNRDVRQYVQGCGV [I41V]	YES
